# assay_comment: Prodrug conversion in C57BL/6 mouse plasma assessed as AUC(0 to 24 hrs) of TFV metabolite at 10 mg/kg, po measured up to 24 hrs by LC-MS/MS analysis
# Type: ADME, organism-based
# Design: time < 24 hrs, dose 10 mg/kg, route po
# test_parameters: in vivo
Provide the recorded AUC for the entries that follow.
Answers are plain numbers, in ng·h/mL.

INSERT INTO measurements (entry_smiles, experimental_readout, units, test_value) VALUES
  ('C[C@H](Cn1cnc2c(N)ncnc21)OCP(=O)(O)OCCCOCCCCCCCCCCCCC#C[Si](C)(C)C.N', 'AUC', 'ng·h/mL', 142),
  ('C[C@H](Cn1cnc2c(N)ncnc21)OCP(=O)(O)OCCCOCCCCCCCCCCCCCC#CC(F)(F)F.N', 'AUC', 'ng·h/mL', 425),
  ('CCCCCCCCCCCCCCCCOCCCOP(=O)(O)CO[C@H](C)Cn1cnc2c(N)ncnc21.N', 'AUC', 'ng·h/mL', 132);

From here, focus on the item given below.
Please report the recorded AUC for C[C@H](Cn1cnc2c(N)ncnc21)OCP(=O)(O)OCCCOCCCCCCCCCCCCCCCC(F)(F)F.N . 337

---

# assay_comment: Prodrug conversion in C57BL/6 mouse liver assessed as AUC(0 to 24 hrs) of TFV metabolite at 10 mg/kg, po measured up to 24 hrs by LC-MS/MS analysis
# Type: ADME, organism-based
# Design: time < 24 hrs, dose 10 mg/kg, route po
# test_parameters: in vivo
experimental_readout: AUC
Give the number first and the unit second.

A selection of reference data follows.
INSERT INTO measurements (entry_smiles, test_value) VALUES
  ('CCCCCCCCCCCCCCCCOCCCOP(=O)(O)CO[C@H](C)Cn1cnc2c(N)ncnc21.N', '26100 ng·h/mL'),
  ('C[C@H](Cn1cnc2c(N)ncnc21)OCP(=O)(O)OCCCOCCCCCCCCCCCCCCCC(F)(F)F.N', '22600 ng·h/mL'),
  ('C[C@H](Cn1cnc2c(N)ncnc21)OCP(=O)(O)OCCCOCCCCCCCCCCCCCC#CC(F)(F)F.N', '21900 ng·h/mL');

Turning now to a further record.
Report AUC for C[C@H](Cn1cnc2c(N)ncnc21)OCP(=O)(O)OCCCOCCCCCCCCCCCCC#C[Si](C)(C)C.N please. 11200 ng·h/mL

---

# experimental_system: UniProt:P10635
# Sequence (P10635 whole entry): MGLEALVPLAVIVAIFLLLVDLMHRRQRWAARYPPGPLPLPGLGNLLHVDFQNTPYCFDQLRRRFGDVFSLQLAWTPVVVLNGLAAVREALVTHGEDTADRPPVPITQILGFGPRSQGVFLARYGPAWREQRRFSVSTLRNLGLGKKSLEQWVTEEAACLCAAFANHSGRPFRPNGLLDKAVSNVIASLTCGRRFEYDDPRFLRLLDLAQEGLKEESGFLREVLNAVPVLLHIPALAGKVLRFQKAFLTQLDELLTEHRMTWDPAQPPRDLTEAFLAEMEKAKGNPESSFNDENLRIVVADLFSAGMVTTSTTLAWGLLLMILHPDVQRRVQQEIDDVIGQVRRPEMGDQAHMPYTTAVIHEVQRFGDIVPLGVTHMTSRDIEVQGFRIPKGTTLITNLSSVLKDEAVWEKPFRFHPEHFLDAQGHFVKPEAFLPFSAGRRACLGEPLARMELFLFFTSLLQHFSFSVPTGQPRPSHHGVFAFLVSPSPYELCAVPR
# assay_comment: Inhibition of human recombinant CYP2D6 expressed in insect microsome using (3-[2-([…]-N-methylammonium)-ethyl]-7-methoxy-4-methylcoumarin iodide as a substrate incubated for 30 mins followed by addition of NADPH regenerating system measured immediately by fluorescence based analysis
# Assay type: ADME, microsomes
pIC50: −log10 of the molar value.
experimental_readout: pIC50

Reference set, count: 7
INSERT INTO measurements (compound, experimental_readout, test_value) VALUES
  ('C[C@H](Cn1cnc2c(N)ncnc21)OCP(=O)(O)O [TENOFOVIR ANHYDROUS]', 'pIC50', '< 4.30'),
  ('C[C@H](Cn1cnc2c(N)ncnc21)OCP(=O)(O)OCCCOCCCCCCCCCCCCC#C[Si](C)(C)C.N', 'pIC50', 4.66),
  ('C#CCCCCCCCCCCCCCCOCCCOP(=O)(O)CO[C@H](C)Cn1cnc2c(N)ncnc21.N', 'pIC50', '< 4.70'),
  ('C[C@H](Cn1cnc2c(N)ncnc21)OCP(=O)(O)OCCCCCCCCCCCCCCCCCC#CC(F)(F)F.N', 'pIC50', '< 4.70'),
  ('C[C@H](Cn1cnc2c(N)ncnc21)OCP(=O)(O)OCCCOCCCCCCCCCCCCCCCC(F)(F)F.N', 'pIC50', '< 4.70'),
  ('CCCCCCCCCCCCCCCCCCCCOP(=O)(O)CO[C@H](C)Cn1cnc2c(N)ncnc21.N', 'pIC50', 4.48),
  ('C[C@H](Cn1cnc2c(N)ncnc21)OCP(=O)(O)OCCCOCCCCCCCCCCCCCC#CC(F)(F)F.N', 'pIC50', '< 4.70');

Please turn your attention to the following entry.
Field: pIC50 (UniProt:P10635). Entry: C[C@H](Cn1cnc2c(N)ncnc21)OCP(=O)(O)OCCCCCCCCCCCCCCCCCCCC(F)(F)F.N < 4.70

---

# assay_comment: Prodrug conversion in C57BL/6 mouse plasma assessed as Cmax of TFV metabolite at 10 mg/kg, po measured up to 24 hrs by LC-MS/MS analysis
# Format: ADME, organism-based
# Set-up: time < 24 hrs, dose 10 mg/kg, route po
# test_parameters: in vivo
For each of the molecules below, state its Cmax.
Numbers only, in ng/mL.

INSERT INTO results (entry_smiles, test_value) VALUES
  ('C[C@H](Cn1cnc2c(N)ncnc21)OCP(=O)(O)OCCCOCCCCCCCCCCCCCC#CC(F)(F)F.N', 42.8);

Value sought for every listed molecule: Cmax.
1. C[C@H](Cn1cnc2c(N)ncnc21)OCP(=O)(O)OCCCOCCCCCCCCCCCCCCCC(F)(F)F.N
2. CCCCCCCCCCCCCCCCOCCCOP(=O)(O)CO[C@H](C)Cn1cnc2c(N)ncnc21.N

1: 22.1; 2: 19.6

Looking for the measured Cmax of C[C@H](Cn1cnc2c(N)ncnc21)OCP(=O)(O)OCCCOCCCCCCCCCCCCC#C[Si](C)(C)C.N , can you help? 14.1

---

# experimental_system: Cytochrome P450 3A4 (Homo sapiens, UniProt P08684)
# Sequence (P08684 whole entry): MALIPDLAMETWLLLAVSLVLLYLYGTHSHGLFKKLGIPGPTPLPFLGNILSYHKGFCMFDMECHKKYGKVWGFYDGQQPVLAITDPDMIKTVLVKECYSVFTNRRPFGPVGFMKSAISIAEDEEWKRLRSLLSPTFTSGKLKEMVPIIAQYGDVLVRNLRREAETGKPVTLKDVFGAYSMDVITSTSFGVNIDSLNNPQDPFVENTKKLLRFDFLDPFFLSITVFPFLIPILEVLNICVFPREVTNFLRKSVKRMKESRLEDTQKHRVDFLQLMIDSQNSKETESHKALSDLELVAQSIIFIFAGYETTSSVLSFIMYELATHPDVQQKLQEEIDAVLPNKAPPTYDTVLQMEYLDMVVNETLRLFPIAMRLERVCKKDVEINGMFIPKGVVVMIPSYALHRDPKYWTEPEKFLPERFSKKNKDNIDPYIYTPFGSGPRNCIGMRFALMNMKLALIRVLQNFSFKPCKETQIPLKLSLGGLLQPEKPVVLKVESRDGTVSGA
# assay_comment: Inhibition of human recombinant CYP3A4 expressed in insect microsome using 7-benzyloxy-4-trifluoromethylcoumarin as a substrate incubated for 30 mins followed by addition of NADPH regenerating system measured immediately by fluorescence based analysis
experimental_readout: IC50

INSERT INTO measurements (compound, experimental_readout, test_value) VALUES
  ('C[C@H](Cn1cnc2c(N)ncnc21)OCP(=O)(O)OCCCOCCCCCCCCCCCCCCCC(F)(F)F.N', 'IC50', '> 20 µM'),
  ('C[C@H](Cn1cnc2c(N)ncnc21)OCP(=O)(O)OCCCCCCCCCCCCCCCCCC#CC(F)(F)F.N', 'IC50', '> 20 µM'),
  ('CCCCCCCCCCCCCCCCCCCCOP(=O)(O)CO[C@H](C)Cn1cnc2c(N)ncnc21.N', 'IC50', '50 µM'),
  ('C#CCCCCCCCCCCCCCCOCCCOP(=O)(O)CO[C@H](C)Cn1cnc2c(N)ncnc21.N', 'IC50', '> 20 µM'),
  ('C[C@H](Cn1cnc2c(N)ncnc21)OCP(=O)(O)OCCCCCCCCCCCCCCCCCCCC(F)(F)F.N', 'IC50', '> 20 µM'),
  ('C#CCCCCCCCCCCCCCCCCCCOP(=O)(O)CO[C@H](C)Cn1cnc2c(N)ncnc21.N', 'IC50', '> 50 µM');

For every item below, please supply its IC50.
1. C[C@H](Cn1cnc2c(N)ncnc21)OCP(=O)(O)OCCCOCCCCCCCCCCCCC#C[Si](C)(C)C.N
2. C[C@H](Cn1cnc2c(N)ncnc21)OCP(=O)(O)O [TENOFOVIR ANHYDROUS]

> 20 µM
45.8 µM

---

Could you please report measured CC50 for the items listed next?
# Tested on: HEK-293T
# assay_comment: Cytotoxicity against HEK293T cells assessed as reduction in cell viability measured after 48 hrs by CellTiter 96 Aqueous One Solution reagent based cell proliferation assay
# test_parameters: human
Give bare numbers, in µM.

Observe how each entry below is paired with its result.
INSERT INTO measurements (compound, test_value) VALUES
  ('CCCCCCCCCCCCCCCCOCCCOP(=O)(O)CO[C@H](C)Cn1cnc2c(N)ncnc21.N', 97.6),
  ('CCCCCCCCCCCCCCCCSCCCOP(=O)(O)CO[C@H](C)Cn1cnc2c(N)ncnc21.N', 49.8),
  ('C[C@H](Cn1cnc2c(N)ncnc21)OCP(=O)(O)OCCCCCCCCCCCCCCCCC#C[Si](C)(C)C.N', 68.1),
  ('C[C@H](Cn1cnc2c(N)ncnc21)OCP(=O)(O)OCCCCCCCCCCCCCCCCCC#CC(F)(F)F.N', 78.7),
  ('C[C@H](Cn1cnc2c(N)ncnc21)OCP(=O)(O)OCCCCCCCCCCCCCCCCCCCC(F)(F)F.N', 72.4);

Would you mind giving CC50 for every compound in the list below?
1. C#CCCCCCCCCCCCCCCCCCCOP(=O)(O)CO[C@H](C)Cn1cnc2c(N)ncnc21.N
2. CCCCCCCCCCCCCCCCCCOP(=O)(O)CO[C@H](C)Cn1cnc2c(N)ncnc21.N

1: 99.5; 2: 84.1

The following compounds each have a reported value; give each one's CC50.
1. C[C@H](Cn1cnc2c(N)ncnc21)OCP(=O)(O)O [TENOFOVIR ANHYDROUS]
2. CCCCCCCCCCCCCCCCCCCCOP(=O)(O)CO[C@H](C)Cn1cnc2c(N)ncnc21.N

35.4
13.2
